Target: SARS-CoV-2 fusion peptide (FP) coldspot peptide, 812-831 (SARS-CoV-2 (ancestral), biotin-Ahx at the N-terminus; C-terminal amidation)
ENDPOINT LABEL: binding result

The recorded binding result for fp.008 (antibody, V domains shown) VH: VQLVESGGGVVQPGRSLRLSCRASGFRFNNYAMHWVRQAPGKGLEWVAIISYEARNEKYAASVKGRFSISRDNAKNTLYLQMNSLRPEDTAIYYCARDVFLSDYDQSGYDVTRGGFDYWGQGTLVTVSS VL: EIVMTQSPATLSVSPGESATLSCRASQSVSSSLAWYQHKFGQAPRLLIYGASTRATGIPDRFSGSGSGMEFTLTISSLQSEDVAIYYCQQYGDWPLVTFGGGTKVEIK is binds

The recorded binding result for fp.009 (antibody, V domains shown) VH: VQLVESGGGVVQPGTSLTLSCEASGFTFSNYAMHWVRQAPGKGLEWVAIISFDTRNKKFAGSVQGRFSISRDNAKNSIYLQMNNLRPEDTGIYYCARDVFLSDYDSRGFDRTRGGFDYWGQGTLVTVSS VL: EIVMTQSPATLSVSPGEKATLSCRASESVGSSLAWYQQKLGQAPRLLIYGASTRATGIPARFSGSGSGAEFTLTISSLQSEDFAIYYCQQYGDWPLLTFGGGTKVEIK is binds

The recorded binding result for fp.011 (antibody, V domains shown) VH: EVQLLESGGGLVQPGGSLRLSCAGSGFTFNNYAMTWVRQAPGRGLEWVSAISGSGGSSHYADSVKGRFTITRDNSKNTLYLQMNSLRAEDTAVYYCAFIDYYSGWSYYYGLDVWGQGTTVTVSS VL: EIVLTQSPATLSLSPGERATLSCRASQGVRTYVAWYQQKPGQAPRLLIYDASNRATGIPARFSGSGSGTDFTLTISSLEPEDFAVYYCQQRYNWPLCSFGQGTKLEIK is binds
